target: β2AR (Rattus norvegicus, UniProt P10608); settings: read-out: [125I]CYP dissociation constant; SPOC1 cell membranes, 37° C., 2 hour; nonspecific binding 0.1 μM (−)-propranolol; representative Scatchard plot
Sequence (P10608 whole entry): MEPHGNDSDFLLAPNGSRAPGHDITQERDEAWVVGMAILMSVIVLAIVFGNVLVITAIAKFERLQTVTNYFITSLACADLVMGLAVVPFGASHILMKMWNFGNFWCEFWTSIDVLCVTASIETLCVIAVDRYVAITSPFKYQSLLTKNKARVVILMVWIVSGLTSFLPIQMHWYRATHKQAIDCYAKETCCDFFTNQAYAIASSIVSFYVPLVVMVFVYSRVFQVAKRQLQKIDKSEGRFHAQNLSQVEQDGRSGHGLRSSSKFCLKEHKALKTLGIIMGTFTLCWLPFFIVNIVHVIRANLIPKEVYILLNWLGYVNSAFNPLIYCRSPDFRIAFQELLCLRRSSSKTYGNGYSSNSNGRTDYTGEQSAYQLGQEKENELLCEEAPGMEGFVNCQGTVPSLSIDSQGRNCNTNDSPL
property: Kd (nM)
Reply numerically in nM, unit not repeated.

Requested field: Kd. Item: CC(C)(C)NCC(O)COc1cccc2[nH]c(C#N)c(I)c12 (stereo not shown) [[^125I]CYP, [^125I]cyanoiodopindolol]
0.01
